- assay.target: BCDIN3D (Homo sapiens)
- Sequence (Q7Z5W3 1-292): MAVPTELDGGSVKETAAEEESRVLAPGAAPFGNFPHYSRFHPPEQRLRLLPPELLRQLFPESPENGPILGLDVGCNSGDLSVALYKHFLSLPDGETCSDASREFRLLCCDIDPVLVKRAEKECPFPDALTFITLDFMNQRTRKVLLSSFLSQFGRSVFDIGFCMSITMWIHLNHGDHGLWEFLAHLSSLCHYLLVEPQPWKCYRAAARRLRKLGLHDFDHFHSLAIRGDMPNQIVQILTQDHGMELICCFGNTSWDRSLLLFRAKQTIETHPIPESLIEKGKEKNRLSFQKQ
- method: BCDIN3D InCellPulse thermal stability assay in transfected A549 cells
- Format: cell-based
- experimental.parameters: transiently transfected A549 cells, heat shock 58° C. 15 min
pIC50: −log10 of the molar value.
Use 6 as the dividing line for pIC50, with the line itself on the class 1 side and lower values as class 0.

Example entries and their recorded answers appear below.
Cn1ncc2c(NCC3CC34CC4)nc(NC[C@H](N)c3ccccc3)nc21 (stereo partly shown) [Compound 4.60]
class 1
Cn1ncc2c(NC3CC(C#N)C3)nc(NC[C@H](N)c3ccccc3)nc21 (stereo partly shown) [Compound 4.91]
class 1
Cn1ncc2c(NC(C)(C)C)nc(NCC(C)(N)c3ccccc3)nc21 (stereo not shown) [Compound 4.51]
class 0
Cn1ncc2c(NC3CC(CO)(CCl)C3)nc(NCC(N)c3ccccc3)nc21 (stereo not shown) [Compound 4.81]
class 1
Cn1ncc2c(NC(C)(C)C)nc(NC[C@H](N)c3ccccc3Cl)nc21 [Compound 5.11]
class 1

Is pIC50 for Cn1ncc2c(NC3(C(C)(C)C)CC3)nc(NC[C@H](N)c3ccccc3)nc21 [Compound 4.79] at or above 6?
class 0

Is pIC50 for Cn1ncc2c(Nc3ccc(OC(F)F)cc3)nc(NCC(N)c3ccccc3)nc21 (stereo not shown) [Compound 4.14] at or above 6?
class 1

Is pIC50 for Cn1ncc2c(NCc3cccc(Br)c3)nc(NCC(N)c3ccccc3)nc21 (stereo not shown) [Compound 4.06] at or above 6?
class 1

* * *

- assay.target: BCDIN3D (Homo sapiens, UniProt Q7Z5W3)
- method: BCDIN3D IC50 RFMS (RapidFire) assay with mini-helix
- Format: biochemical
- experimental.parameters: mini-helix substrate 0.2 μM, SAM 6 μM, 25 nM enzyme
quantity.name: pIC50
Answers are plain numbers, as −log10 of the molar value.

Some compounds with known pIC50 results, for comparison:
Cn1ncc2c(Nc3cnc(C(F)(F)F)nc3)nc(NCC(C)(N)c3ccccc3)nc21 (stereo not shown)
6.77
Cn1ncc2c(Nc3ccc(C(F)(F)F)cc3)nc(NCC3(N)CCCC3)nc21
7.06
Cn1ncc2c(NC3(C)CC3)nc(NC[C@H](N)c3ccccc3)nc21
5.56
Cn1ncc2c(N[C@H]3CCC(F)(F)C3)nc(NC[C@H](N)c3ccccc3)nc21
6.35
Cn1ncc2c(Nc3ccc(Cl)cc3)nc(NCC3(N)CC3)nc21
7.24
Cn1ncc2c(NC(C3CC3)C3CC3)nc(NCC(N)c3ccccc3)nc21 (stereo not shown)
5.19
Cn1ncc2c(NC(C)(C)C)nc(NCC(N)c3ccc(C4CC4)cc3)nc21 (stereo not shown)
6.89
Cn1ncc2c(Nc3cc(F)cc(Cl)c3)nc(NCC3(N)CC3)nc21
6.34

For every item below, please supply its pIC50.
1. Cc1ccc(CNc2nc(NCC3(N)CC3)nc3c2cnn3C)cc1Cl
2. Cn1ncc2c(NCc3cccc(Br)c3)nc(NCC(N)c3ccccc3)nc21 (stereo not shown)

1. 6.56
2. 7.06

* * *

- assay.target: BCDIN3D (Homo sapiens)
- Sequence (Q7Z5W3 1-292): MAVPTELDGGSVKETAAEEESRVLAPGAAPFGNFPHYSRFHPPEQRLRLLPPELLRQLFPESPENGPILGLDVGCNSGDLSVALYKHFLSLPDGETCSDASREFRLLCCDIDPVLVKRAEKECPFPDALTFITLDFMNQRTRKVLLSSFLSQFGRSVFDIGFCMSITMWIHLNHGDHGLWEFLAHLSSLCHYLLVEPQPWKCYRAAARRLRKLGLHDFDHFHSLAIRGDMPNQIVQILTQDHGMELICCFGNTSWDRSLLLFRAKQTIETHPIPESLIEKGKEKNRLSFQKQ
- method: BCDIN3D IC50 RFMS (RapidFire) assay with mini-helix
- Format: biochemical
- experimental.parameters: mini-helix substrate 0.2 μM, SAM 6 μM, 25 nM enzyme
IC50 less than 5 µM is T; IC50 greater than or equal to 5 µM is F.

Example entries and their recorded answers appear below.
Cn1ncc2c(Nc3ccc(C(F)(F)F)cc3)nc(NCC3COCCN3)nc21 (centres unmarked)
F
[2H]C([2H])([2H])Nc1nc(NCC(N)c2ccccc2)nc2c1cnn2C (centres unmarked)
F
CN[C@@H](CNc1nc(NC(C)(C)C)c2cnn(C)c2n1)c1ccccc1
T
CC(C)(C)Nc1nc(NC[C@H](N)c2ccccc2)nc2c1cnn2C1CC1
F
Cn1ncc2c(Nc3ccc(C(F)(F)F)nc3)nc(NCC(N)c3ccccc3)nc21 (centres unmarked)
T

Moving on to the next compound.
Would you kindly verify if IC50 of C[C@H](Nc1nc(NC[C@H](N)c2ccccc2)nc2c1cnn2C)C1CC1 is strictly less than 5 µM?
T

* * *

Provide the reported pIC50 of each item.
- assay.target: BCDIN3D (Homo sapiens, UniProt Q7Z5W3)
- method: BCDIN3D InCellPulse thermal stability assay in transfected A549 cells
- Format: cell-based
- experimental.parameters: transiently transfected A549 cells, heat shock 58° C. 15 min
Answers are plain numbers, as −log10 of the molar value.

Some compounds with known pIC50 results, for comparison:
Cc1ccc(CNc2nc(NC3CCCCC3N)nc3c2cnn3C)cc1Cl (stereo not drawn)
5.85
Cn1ncc2c(N[C@H]3CCC(F)(F)C3)nc(NC[C@H](N)c3ccccc3)nc21
6.24
Cn1ncc2c(Nc3cnc(C(F)(F)F)nc3)nc(NCC(C)(N)c3ccccc3)nc21 (stereo not drawn)
5.67

For every item below, please supply its pIC50.
1. Cn1ncc2c(NC(C)(C)C(F)(F)F)nc(NC[C@H](N)c3ccccc3)nc21
2. Cn1ncc2c(Nc3ccc(C(F)(F)F)nc3)nc(NCC(C)(N)c3ccccc3)nc21 (stereo not drawn)
3. CC(C)Oc1ccc(Nc2nc(NCC3(N)CC3)nc3c2cnn3C)cc1
4. CC(C)[C@H](C)Nc1nc(NC[C@H](N)c2ccccc2)nc2c1cnn2C
5. [2H]C([2H])([2H])n1ncc2c(NC(C)(C)C)nc(NCC(N)c3ccccc3F)nc21 (stereo not drawn)
6. [2H]C([2H])([2H])n1ncc2c(Nc3ccc(C(F)(F)F)cc3)nc(NCC3(N)CCC3)nc21
7. Cn1ncc2c(NC34CC(F)(C3)C4)nc(NCC3(N)CC3)nc21

1. 6.15
2. 6.42
3. 5.82
4. 5.45
5. 6.37
6. 6.32
7. 5.23

* * *

Provide the reported log10 IC50 of each item.
- assay.target: BCDIN3D (Homo sapiens, UniProt Q7Z5W3)
- Sequence (Q7Z5W3 1-292): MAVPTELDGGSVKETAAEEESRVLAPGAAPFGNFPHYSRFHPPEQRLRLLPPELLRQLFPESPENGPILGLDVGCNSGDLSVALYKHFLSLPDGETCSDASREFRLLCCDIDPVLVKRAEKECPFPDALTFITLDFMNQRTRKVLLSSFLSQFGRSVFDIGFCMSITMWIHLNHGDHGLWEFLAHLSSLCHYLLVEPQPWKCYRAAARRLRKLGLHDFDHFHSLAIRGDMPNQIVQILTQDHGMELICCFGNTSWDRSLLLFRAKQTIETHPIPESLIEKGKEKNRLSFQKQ
- method: BCDIN3D InCellPulse thermal stability assay in transfected A549 cells
- Format: cell-based
- experimental.parameters: A549 cells transiently transfected with ePL-BCDIN3D, 1 h pre-incubation, heat shock 58° C. 15 min
In plain terms, each number is the log10 of measured IC50 in µM.

COc1ccc(-c2cccc(Nc3nc(NCCN)nc4c3cnn4C)c2)cc1
0.01
Cn1ncc2c(Nc3ccc(C(F)(F)F)nc3)nc(NCC3(N)CCOCC3)nc21
0.90
Cn1ncc2c(OC(C)(C)C)nc(NCC(N)c3ccccc3)nc21 (stereo not drawn)
0.71
Cn1ncc2c(Nc3ccc(C(F)(F)F)nc3)nc(NC[C@H](N)c3ccccc3)nc21
-0.65
Cc1ccc(CNc2nc(NC3CCCCC3N)nc3c2cnn3C)cc1Cl (stereo not drawn)
0.15
COc1ccc(Nc2nc(NCCN)nc3c2cnn3C)cc1Cl
0.91
COc1cccc(-c2cccc(Nc3nc(NCCN)nc4c3cnn4C)c2)c1
0.03
Cn1ncc2c(Nc3ccc(C(F)(F)F)cc3)nc(NCC3(N)CCCCC3)nc21
-0.63

For every item below, please supply its log10 IC50.
1. CC(C)Oc1nc(NCC(N)c2ccccc2)nc2c1cnn2C (stereo not drawn)
2. Cc1nn(C)c2nc(NCC(C)(C)N)nc(Nc3cccc(C(F)(F)F)c3)c12
3. Cc1ccc(CNc2nc(NC[C@@H](N)CF)nc3c2cnn3C)cc1Cl
4. Cn1ncc2c(NC(C)(C)C)nc(NC[C@@H](N)c3ccccc3F)nc21
5. Cn1ncc2c(NCC(F)(F)F)nc(NC[C@@H](N)c3ccccc3)nc21
6. CCOc1nc(NCC(N)c2ccccc2)nc2c1cnn2C (stereo not drawn)
7. COc1ccc(C(C)Nc2nc(NCCN)nc3c2cnn3C)cc1Cl (stereo not drawn)

[0.62, 0.81, 0.80, 0.62, 0.61, 0.82, 0.47]
